- test-details: Cytotoxicity against mammalian L6 cells
- Type: cell-based
- cond: rat; mean of two independent determinations; read-out: IC50 Cytotox L6
Reported IC50 by item:

compound	IC50 (µM)
C=C[C@](C)(O)CC[C@H]1C(=C)CC[C@H]2C(C)(C)CCC[C@]12C	19
COc1cc([C@@H]2c3cc4c(cc3[C@H](O)[C@H]3COC(=O)[C@H]23)OCO4)cc(OC)c1OC [Podophyllotoxin, reference compound]	0.022
CO[C@H]1c2cc(C(C)C)c(O)c(O)c2[C@@]23CCCC(C)(C)[C@@H]2[C@@H]1OC3=O	18

====

- test-details: in vitro
- cond: rat
metric-name: selectivity ratio

molecule	measured-result
CC(C)c1cc2c(c(O)c1O)[C@@]13CCCC(C)(C)[C@@H]1[C@H](OC3=O)[C@@H]2O [Epirosmanol (2), epirosmanol]	1.6
COc1c(C(C)C)cc2c(c1O)[C@@]1(C(=O)O)CCCC(C)(C)[C@@H]1CC2	1.3
COc1cc2oc(-c3ccc(O)cc3)cc(=O)c2c(O)c1OC [Cirsimaritin (1), 4’,5-dihydroxy-6,7-dimethoxyflavone]	2.8
CO[C@H]1c2cc(C(C)C)c(O)c(O)c2[C@@]23CCCC(C)(C)[C@@H]2[C@@H]1OC3=O	0.8
C=C[C@](C)(O)CC[C@H]1C(=C)CC[C@H]2C(C)(C)CCC[C@]12C	2.1

====

- test-details: Cytotoxicity against mammalian L6 cells
- Type: cell-based
- cond: rat; mean of two independent determinations ± deviation from the mean; read-out: IC50 Cytotox L6

molecule	unit-text	IC50
CO[C@H]1c2cc(C(C)C)c(O)c(O)c2[C@@]23CCCC(C)(C)[C@@H]2[C@@H]1OC3=O	µg/mL	6.6
COc1cc([C@@H]2c3cc4c(cc3[C@H](O)[C@H]3COC(=O)[C@H]23)OCO4)cc(OC)c1OC [Podophyllotoxin, reference compound]	µg/mL	0.009
C=C[C@](C)(O)CC[C@H]1C(=C)CC[C@H]2C(C)(C)CCC[C@]12C	µg/mL	5.6
